Give pIC50 for every item shown.
Molecular target: T1, IGFBP-3 (human, UniProt P17936 28-291)
T1 construct: also called rhIGFBP-3
T1 sequence (P17936 28-291 limits assumed): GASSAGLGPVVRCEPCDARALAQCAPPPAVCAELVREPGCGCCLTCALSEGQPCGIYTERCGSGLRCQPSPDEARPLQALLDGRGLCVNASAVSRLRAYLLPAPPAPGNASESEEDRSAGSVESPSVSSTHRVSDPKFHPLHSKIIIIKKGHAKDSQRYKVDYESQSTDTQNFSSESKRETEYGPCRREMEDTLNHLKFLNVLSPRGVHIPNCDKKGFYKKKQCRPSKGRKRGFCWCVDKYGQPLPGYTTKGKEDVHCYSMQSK
Test: BIAcore competition: peptide inhibits IGFBP-3 binding to immobilized IGF-I
One number for each entry, as −log10 of the molar value.

INSERT INTO results (binder, quantitative_result) VALUES
  ('CWPVAEWYLCN [bp3-25 (SEQ ID NO:106)]', 4.34),
  ('GPETCWPVAEWYLCN (bp3-01-ox variant) [bp3-41]', 5.40);

Noted for SEEVCWPVAEWYLCN (also called BP15) [bp3-15] : its pIC50 reads 6.14
